Form field: AUC at 6 h (one value per entry).
- Assay info: AUC in rat at 10 mg/kg, po after 0 to 6 hrs
- Type: ADME, organism-based
- Set-up: time < 6 hr, dose 10 mg/kg, route oral
- Study conditions: plasma
Endpoint label: AUC at 6 h (µg·h/mL)

Compound	Number
CC[C@@H]1CCC[C@H](C2(OC(=O)N3CCN(C(C)(C)CO)CC3)CC2)N1S(=O)(=O)c1ccc(Cl)cc1 (racemic)	0.892
CC[C@@H]1CCC[C@H](C2(OC(=O)N3CC4CCC(C3)N4CCO)CC2)N1S(=O)(=O)c1ccc(Cl)cc1 (mixture of isomers)	0.939
CC[C@@H]1CCC[C@H](C2(OC(=O)N3CCN(CCO)C[C@@H]3C)CC2)N1S(=O)(=O)c1ccc(Cl)cc1 (racemic)	3.41
CC[C@@H]1CCC[C@H](C2(OC(=O)N3CC4CCC(C3)N4CCO)CC2)N1S(=O)(=O)c1ccc(F)cc1 (mixture of isomers)	1.78
CC[C@@H]1CCC[C@H](C2(OC(=O)N3CCN(C(C)(C)CO)CC3)CC2)N1S(=O)(=O)c1ccc(F)cc1 (racemic)	0.405
CC[C@@H]1CCC[C@H](C2(OC(=O)N3CCC(N4CCCCC4)CC3)CC2)N1S(=O)(=O)c1cc(F)cc(F)c1 (racemic)	0.296
CC[C@@H]1CCC[C@H](C2(OC(=O)N3CCC(CCO)(OC)CC3)CC2)N1S(=O)(=O)c1ccc(Cl)cc1 (racemic)	0.081
